Biological target: Tyrosine-protein kinase SYK (Homo sapiens, UniProt P43405)
Experiment: Inhibition of SYK in human mast cell cultures assessed as reduction in IgE-induced FCepsilonR1 mediated degranulation by tryptase release assay
The entries below are paired with their reported EC50.
Measure: EC50 (µM)

INSERT INTO results (item_smiles, value_reported) VALUES
  ('CNC(=O)COc1cccc(Nc2ncc(F)c(Nc3ccc(N4CCOCC4)cc3)n2)c1', 1.29),
  ('N#Cc1ccc(Nc2ncc(F)c(Nc3ccc(C#N)cc3)n2)cc1', 9.83),
  ('Cc1cnc(Nc2cccc(O)c2)nc1Nc1cccc(O)c1', 0.9),
  ('OCCOc1cccc(Nc2ncc(F)c(Nc3cccc(OCCO)c3)n2)c1', 0.93),
  ('CCOc1cccc(Nc2ncc(F)c(Nc3cccc(OCC)c3)n2)c1', 3.1),
  ('Oc1cccc(Nc2ncc(Br)c(Nc3cccc(O)c3)n2)c1', 0.23);

----------
Target: Tyrosine-protein kinase SYK (Homo sapiens)
Experiment: Inhibition of SYK in human mast cell cultures assessed as reduction in IgE-induced FCepsilonR1 mediated degranulation by tryptase release assay
pEC50: −log10 of the molar value.
Entry flag: label 1 if pEC50 reaches 6; label 0 if it does not.

INSERT INTO assay_data (item_smiles, assayed_system, classification) VALUES
  ('CNC(=O)COc1cccc(Nc2ncc(F)c(Nc3ccc(C(C)(C)C)cc3)n2)c1', 'Tyrosine-protein kinase SYK (Homo sapiens)', 'label 1'),
  ('COc1cccc(Nc2ncc(F)c(Nc3cccc(OC)c3)n2)c1', 'Tyrosine-protein kinase SYK (Homo sapiens)', 'label 0'),
  ('COC(=O)COc1ccc(Nc2ncc(F)c(Nc3ccc(OCC(N)=O)cc3)n2)cc1', 'Tyrosine-protein kinase SYK (Homo sapiens)', 'label 1'),
  ('COC(=O)COc1ccc(Nc2ncc(F)c(Nc3ccc(OCC(=O)OC)cc3)n2)cc1', 'Tyrosine-protein kinase SYK (Homo sapiens)', 'label 1'),
  ('Oc1cccc(Nc2cc(-c3ccccc3)nc(Nc3cccc(O)c3)n2)c1', 'Tyrosine-protein kinase SYK (Homo sapiens)', 'label 0'),
  ('NC(=O)COc1ccc(Nc2ncc(F)c(Nc3cccc(O)c3)n2)cc1', 'Tyrosine-protein kinase SYK (Homo sapiens)', 'label 1'),
  ('Fc1cnc(Nc2ccc(N3CCOCC3)cc2)nc1Nc1ccc(N2CCOCC2)cc1', 'Tyrosine-protein kinase SYK (Homo sapiens)', 'label 0'),
  ('Oc1cccc(Nc2ncc(-c3ccccc3)c(Nc3cccc(O)c3)n2)c1', 'Tyrosine-protein kinase SYK (Homo sapiens)', 'label 0'),
  ('Fc1cnc(Nc2cccc(OC(F)(F)F)c2)nc1Nc1cccc(OC(F)(F)F)c1', 'Tyrosine-protein kinase SYK (Homo sapiens)', 'label 0'),
  ('CNC(=O)COc1cccc(Nc2ncc(F)c(Nc3ccc(OC(F)(F)F)cc3)n2)c1', 'Tyrosine-protein kinase SYK (Homo sapiens)', 'label 1');

----------
Biological target: Tyrosine-protein kinase SYK (Homo sapiens, UniProt P43405)
Assay: Inhibition of SYK in human mast cell cultures assessed as reduction in ionomycin-induced calcium mobilization mediated degranulation by tryptase release assay
The entries below are paired with their reported EC50.
Measure: EC50 (µM)

INSERT INTO assay_data (item_smiles, assayed_system, measure, value_reported) VALUES
  ('COC(=O)COc1ccc(Nc2ncc(F)c(Nc3ccc(OCC(N)=O)cc3)n2)cc1', 'Tyrosine-protein kinase SYK (Homo sapiens, UniProt P43405)', 'EC50', 2.48),
  ('COC(=O)COc1ccc(Nc2nc(Nc3ccc(OCC(N)=O)cc3)ncc2F)cc1', 'Tyrosine-protein kinase SYK (Homo sapiens, UniProt P43405)', 'EC50', 10),
  ('COC(=O)COc1ccc(Nc2ncc(F)c(Nc3ccc(OCC(=O)OC)cc3)n2)cc1', 'Tyrosine-protein kinase SYK (Homo sapiens, UniProt P43405)', 'EC50', 1.7),
  ('NC(=O)COc1ccc(Nc2nc(Nc3cccc(O)c3)ncc2F)cc1', 'Tyrosine-protein kinase SYK (Homo sapiens, UniProt P43405)', 'EC50', 10);
